Origin of the recorded values: patent US20260116991A1

Molecular target: T1, polypeptide GC3pep (human)
T1 construct: also called membrane proximal polypeptide GC3pep
T1 peptide: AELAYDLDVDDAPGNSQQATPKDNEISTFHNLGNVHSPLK
Assay: ELISA, GC3pep coated, antibody 10 nM;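 note: antibody bound to the coated peptide for 2 h at 37 °C, detected through an HRP-conjugated secondary antibody with TMB colour development stopped by acid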
# OD450 nm values compiled below
OBSERVABLE: OD450 nm (OD450 nm)

>>> measured_value("F1.73.9 (antibody, human IgG1, kappa, V domains shown, human-murine chimeric antibody) VH: QVQLKQSGAELVRPGASVKLSCKASGYTFTDYYINWVKQRPGQGLEWIARIYPGSGNTYYNEKFKGKATLTAEKSSSTAYMQFSSLTSEDSAVYFCACSTYYTMDYWGQGTSVTVSS VL: QIVLTQSPAIMSASLGERVTMTCTASSGVSSSYLHWYQQKPGSSPKLWIYTTSNLASGVPARFSGSGSGTSYSLTISSMEAEDAATYYCHQYHRSPYTFGGGTKLEIKR")
0.05
>>> measured_value("F3.54.12 (antibody, human IgG1, kappa, V domains shown, human-murine chimeric antibody) VH: QVQLQQSGAELVRPGASVKLSCKASGYTFTDYEMHWVKQTPVHGLEWIGAIDPETGNTAYIQKFKGKATLTTDKSSSTAYMELRSLTSEDSAVYYCTRFYSYSHWGQGTTLTVSS VL: DVVMTQTPLSLPVSLGDQASISCRSSQSLVHSNGNTYLHWYLQKPGQSPKLLIYKVSNRFSGVPDRFSGSSSGTDFTLKISRVEAEDLGVYFCSQNTHVPPTFGGGTKLEIKR")
2.8
